Source of measurements: PubChem BioAssay (NCI)

System: SW-620 colon
Procedure details: NCI tumour cell line growth inhibition, 48 h; in the data active = GI50 below about 0.43 µM; inactive = the rest
The reply should name one outcome from active, inactive

Problem: # lookup: test call for "COc1ccc2nccc(/C=C/c3ccnc4ccc(OC)cc34)c2c1"
Solution: inactive

Problem: Try the compound "COC(=O)/C(=C\c1c(-c2ccccc2)[nH]c2ccccc12)S(C)(=O)=O"
Solution: inactive

Problem: Try the compound "CNC(=O)c1cc2c(Oc3ccc(NC(=S)NC(=O)Cc4ccccc4)cc3F)ccnc2cc1OC"
Solution: inactive

Problem: Try the compound COc1ccc(C(=O)OC2C(OC3C(O)COC(O[C@H]4C[C@H]5[C@@H]6CC=C7C[C@@H](O)CC[C@]7(C)[C@H]6CC[C@]5(C)[C@H]4[C@H](C)C(=O)CCC(C)C)C3OC(C)=O)OCC(O)C2O)cc1 (some centres undefined)
Solution: active

====

Tested on: SNB-19 CNS
Procedure details: NCI tumour cell line growth inhibition, 48 h
Metric name: TGI

Problem: # TGI lookup, item "CCN(CC)c1ccc(/C=C/C=C(/C#N)C(N)=S)cc1"
Solution: > 100 µM

Problem: Try the molecule "COc1ccc(N(C(=O)NCCO)c2ccccc2)cc1"
Solution: > 100 µM

Problem: Try the molecule "CC(C)[C@](O)(C(=O)OCC1=CCN2CC[C@@H](O)[C@@H]12)[C@H](C)O"
Solution: > 375 µM

Problem: Try the molecule "NC(=O)SCC(=O)Nc1ccc2ncccc2c1"
Solution: > 100 µM

Problem: Try the molecule "COc1ccc(/C(=N/O)c2cc(OC)c(OC)c(OC)c2)c(OC)c1N"
Solution: > 100 µM

Problem: Try the molecule "Cn1c2ccccc2c2nnc(NNCc3ccccn3)nc21"
Solution: 17.4 µM

Problem: Try the molecule "N=C(N)SCc1ccc(N=C=S)cc1"
Solution: 26.7 µM

Problem: Try the molecule CCc1ncnc2cc(OCC3CO3)c(OC)cc12 (stereo not given)
Solution: > 100 µM

Problem: Try the molecule "CC[C@H]1C=CCC[C@@]2(C[C@@H]3CC[C@@H]4[C@H](C(=O)OCCCCCCCCCCCCCCCC(=O)N(CCCNC(C)=O)C[C@H](CCNC(C)=O)OC(C)=O)[C@]5(CCC[C@@H](C)O5)NC(=[N+]34)N2)O1"
Solution: 2.22 µM

Problem: Try the molecule "O=C(COc1ccc(-c2nc3cc(Cl)c(Cl)cc3[nH]2)cc1)N=Nc1c(O)[nH]c2ccccc12"
Solution: 6.62 µM

====

Test system: HT29 colon
Procedure details: NCI tumour cell line growth inhibition, 48 h
Where a SMILES comes first, the peptide text is derived from it. The star is where a group is joined. Boc = CC(C)(C)OC(=O)*; OBn = c1ccc(CO*)cc1
Metric name: TGI

Problem: # TGI lookup, item "CS/C=C\C(=O)O[C@H]1C[C@@H]2[C@@H](O)c3occ(C)c3C[C@]2(C)[C@@H](C)C1"
Solution: 51.8 µM

Problem: Try the compound Cc1cccc(C(=O)O)c1CC1NCCC2c3ccccc3NC12 (stereo not drawn)
Solution: > 100 µM

Problem: Try the compound N#C/C(=C\c1cccc2cnccc12)N1N=NC2C=CC=CC21 (stereo not drawn)
Solution: > 100 µM

Problem: Try the compound CC(=O)OC1OC(c2ccoc2)C[C@@]12C1CCC3O[C@]3(C)[C@]1(C)C[C@H](OC(C)=O)[C@H]2C (stereo partly drawn)
Solution: > 75 µM

Problem: Try the compound "O=Nc1c(O)c2ccccc2c2ccccc12"
Solution: 7.88 µM

Problem: Try the compound CCc1ncnc2cc(OCC3CO3)c(OC)cc12 (stereo not drawn)
Solution: > 100 µM

Problem: Try the compound CC(C)CC(NC(=O)C(Cc1ccccc1)NC(=O)C(Cc1ccccc1)NC(=O)OC(C)(C)C)C(=O)OCc1ccccc1 (stereo not drawn) (Boc-Phe-Phe-Leu-OBn; configuration not given here)
Solution: > 100 µM

Problem: Try the compound "FC(F)(F)c1[nH]ncc1-c1nc2ccc3[nH]ncc3c2c2c1CCCC2"
Solution: 6.76 µM

Problem: Try the compound "CNc1nc2c(C)ccc3[nH]c(N(C)C)nc3c-2n1"
Solution: > 100 µM

Problem: Try the compound NC(=O)C1CCCN1C(=O)N(CCCl)N=O (stereo not drawn)
Solution: > 100 µM

Problem: Try the compound "Cn1c(C(C)(C)OC(=O)Oc2ccccc2)cnc1[N+](=O)[O-]"
Solution: > 100 µM

Problem: Try the compound "Cc1cn2c(/C=N/N=C(N)N)c(-c3ccsc3)nc2s1"
Solution: > 100 µM

Problem: Try the compound "NC(N)=NS(=O)(=O)c1ccc(NC(=O)c2ccc3nc4ccccc4c(N)c3c2)cc1"
Solution: > 100 µM

Problem: Try the compound "O=C1C=C2CC[C@H]3[C@@H]4CC[C@H](Oc5c6ccccc6nc6ccccc56)[C@H]4CC[C@@H]3[C@H]2CC1"
Solution: > 100 µM

Problem: Try the compound "CN(C)c1ccc(/C=N/NC(=O)c2cccc3ccccc23)c(Cl)c1"
Solution: 15.8 µM

Problem: Try the compound O=[N+]([O-])c1ccc(O)c(C=NCC2CCCN3CCCCC23)c1 (stereo not drawn)
Solution: > 100 µM

Problem: Try the compound "Cc1cc(NS(=O)(=O)c2ccc(NC(=O)COC(=O)c3cccc4c(=O)c5ccccc5[nH]c34)cc2)no1"
Solution: > 100 µM

Problem: Try the compound "Cc1ccc(S(=O)(=O)SCc2ccccc2)cc1"
Solution: 47.1 µM

====

Test system: K-562 leukemia
Procedure details: NCI tumour cell line growth inhibition, 48 h; in the data active = GI50 below about 0.43 µM; inactive = the rest
The reply should name one outcome from YES = active, NO = inactive

Problem: # lookup: test call for "CC/C=C\C[C@H](O)C/C=C1/C(=O)C=C[C@@H]1C/C=C\CCCC(=O)NC"
Solution: NO

Problem: Try the molecule COC(=O)[C@@H](OC)[C@@H]1Cc2cc3cc(OC4CC(OC5CC(O)C(O)C(C)O5)C(O)C(C)O4)c(C)c(O)c3c(O)c2C(=O)[C@H]1OC1CC(OC2CC(OC3CC(C)(O)C(O)C(C)O3)C(O)C(C)O2)C(O)C(C)O1 (some centres undefined)
Solution: YES

Problem: Try the molecule "CC(=O)c1ccc2c(c1)N(CCCN(C)C)c1ccccc1S2"
Solution: NO

Problem: Try the molecule CSc1nc(N)c2c(n1)NC(c1ccccc1)C1CCc3ccccc3C1=N2 (centres undefined)
Solution: NO

Problem: Try the molecule "Cn1c2ccccc2c2nnc(NNCc3ccccn3)nc21"
Solution: YES

Problem: Try the molecule "C[C@@](O)(/C=C/[C@H]1CC=CC(=O)O1)[C@@H](C[C@@H](O)\C=C/C=C\C=C\CO)OP(=O)(O)O"
Solution: NO

Problem: Try the molecule "COc1ccc2[nH]c(O)c(/C=c3/ccc4c(c3)N=C(c3ccc(F)cc3)N=4)c2c1"
Solution: NO

Problem: Try the molecule "Oc1ccccc1C=Nc1ccccc1N=Cc1ccccc1O.[Cu+2]"
Solution: NO

Problem: Try the molecule "CCOC(=O)c1nc2cc(C(F)(F)F)ccc2[n+]([O-])c1C"
Solution: NO

====

Test system: K-562 leukemia
Procedure details: NCI tumour cell line growth inhibition, 48 h
Answer each item with its documented TGI.

Problem: # TGI lookup, item "CC1=C/C(=C2/N=C(N(C)C)SS2)C(C)=N1"
Solution: > 100 µM

Problem: Try the molecule COc1ccc(/C=C2\CN(C)CC3C2=NN(c2ccccc2)C3c2ccc(OC)cc2)cc1 (stereo not drawn)
Solution: > 100 µM

Problem: Try the molecule "CCCCCCCCCCCCCCCCOc1ccc(/C=C/C2=[N+](CCCl)CCO2)cc1"
Solution: > 100 µM

====

Test system: HOP-18 NSCLC
Procedure details: NCI tumour cell line growth inhibition, 48 h
Metric name: TGI

Problem: Could you share what TGI was measured for "COc1ccc2c(c1)CCN1C3=C(CCC3)C(=O)C[C@@H]21" , tested on HOP-18 NSCLC?
Solution: > 100 µM

Problem: Try the compound "CCN(CC)CCNC(=O)c1nn(-c2ccc(Cl)cc2)c2c1CCc1cc(OC)ccc1-2"
Solution: 28.7 µM

Problem: Try the compound "CN1C(=O)C(=CN(C)c2ccccc2)C(=O)N(C)C1=O"
Solution: > 100 µM

Problem: Try the compound "CC(C)[C@](O)(C(=O)OCC1=CCN2CC[C@@H](O)[C@@H]12)[C@H](C)O"
Solution: > 375 µM

Problem: Try the compound "CC(C)(C)N=CN(C=C(c1ccccc1)c1ccccc1)C1CCCCC1"
Solution: > 100 µM

====

Test system: RXF 393 renal
Procedure details: NCI tumour cell line growth inhibition, 48 h
Label Satisfied for high-side TGI (at or above 50 µM) and Not satisfied for low-side TGI (below it).

Problem: # check: TGI of "O=C(COc1ccc(-c2nc3cc(Cl)c(Cl)cc3[nH]2)cc1)N=Nc1c(O)[nH]c2ccccc12" is greater than or equal to 50 µM
Solution: Not satisfied

Problem: Try the molecule "Cc1c(-c2ccc(O)c(O)c2)oc(=O)c2c(O)cccc12"
Solution: Not satisfied

Problem: Try the molecule "CN(C)Cc1cc(C(=O)/C=C/c2ccc(F)cc2)cc(CN(C)C)c1O"
Solution: Not satisfied

Problem: Try the molecule "O=C(NC(=O)c1cc2cc(Br)cc(Br)c2oc1=O)Oc1ccccc1"
Solution: Satisfied

Problem: Try the molecule CC(OC(=O)N(N(CCCl)S(C)(=O)=O)S(C)(=O)=O)c1ccc([N+](=O)[O-])cc1 (stereo not given)
Solution: Satisfied

Problem: Try the molecule "O=C1C=C2CC[C@H]3[C@@H]4CC[C@H](Oc5c6ccccc6nc6ccccc56)[C@H]4CC[C@@H]3[C@H]2CC1"
Solution: Satisfied

Problem: Try the molecule "Cc1nc2cccc([N+](=O)[O-])c2n1CCCN(C)C"
Solution: Satisfied

Problem: Try the molecule "Cc1cc2c(=O)cc(-c3ccc(F)cc3)oc2c(C(=O)O)c1C"
Solution: Satisfied
